# Target Or Test System: T1, HLA-DR molecule DRB1*1302 (human)
# T1 chain 1: not shown
# T1 chain 2: not shown
# Run Description: radioligand inhibition, purified HLA-DR
# Applied Conditions: remark: other sources report otherwise

Binder | IC50 [nM]
HNQVRQVPLQRLRIV [Peptide 9019.0034 (Her2/neu.88)] | 270
